pIC50 values by entry
target: KRAS G12C and cRAF (Ras-binding domain) interaction (Homo sapiens (Human), UniProt P01116, C118S/C51S/C80L/G12C); experiment: Inhibition of KRAS G12C and cRAF binding (AlphaScreen); conditions: additional exemplary compounds; KRAS G12C and cRAF binding; read-out: RAF1 RBD IC50
Sequence (P01116 other isoform, or with tags, fused parts or gaps G12C/C51S/C80L/C118S): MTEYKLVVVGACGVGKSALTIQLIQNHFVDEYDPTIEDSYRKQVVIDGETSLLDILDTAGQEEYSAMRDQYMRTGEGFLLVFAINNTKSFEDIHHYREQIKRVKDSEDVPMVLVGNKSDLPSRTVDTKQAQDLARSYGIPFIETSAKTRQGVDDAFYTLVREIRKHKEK
pIC50: −log10 of the molar value.
measurement_name: pIC50

>>> print(df.to_string())
                                    compound  observed_result
 0  CN(C)C/C=C/C(=O)N1CC[C@@H](N(C)c2nc(OCC34CCCN3CCC4)nc3c(F)c(-c4cccc5cccc(Cl)c45)ncc23)C1     7.00 to 8.00
 1  C=CC(=O)N1CC(N(C)c2nc(OCC34CCCN3CCC4)nc3c(F)c(-c4cccc5cccc(Cl)c45)ncc23)C1           < 6.30
 2  C=CC(=O)N1C[C@H](N(C)c2nc(OCC34CCCN3CCC4)nc3c2CCN(c2cccc4cccc(Cl)c24)C3)CC1C#N (stereo partly shown)     6.30 to 7.00
 3  C=CC(=O)N(C)C[C@@H]1CCN1c1nc(OC[C@@]23CCCN2C[C@H](F)C3)nc2c(F)c(-c3cccc4cccc(Cl)c34)ncc12           < 6.30
 4  Cc1ncc(/C=C/C(=O)NCCN(C)c2nc(OCC34CCCN3CCC4)nc3c2CCN(c2cccc4cccc(Cl)c24)C3)o1     6.30 to 7.00
 5  C=CC(=O)N1C[C@H](Nc2nc(OC[C@@]34CCCN3C[C@H](F)C4)nc3c(F)c(-c4cccc5cccc(Cl)c45)ncc23)[C@@H](C)C1           < 6.30
 6  C=CC(=O)N1CC[C@H](O)[C@@H](N(C)c2nc(OC[C@@]34CCCN3C[C@H](F)C4)nc3c(F)c(-c4cccc5cccc(Cl)c45)ncc23)C1     7.00 to 8.00
 7  C=CC(=O)N1CCCC1CNc1nc(OC[C@@]23CCCN2C[C@H](F)C3)nc2c(F)c(-c3cccc4cccc(Cl)c34)ncc12 (stereo partly shown)           < 6.30
 8  C=CC(=O)[C@@H]1CC[C@H]1Nc1nc(OC[C@@H]2CCCN2C)nc2c1CCN(c1cccc3ccccc13)C2           < 6.30
 9  C=CC(=O)N1CC(CNc2nc(OC[C@@]34CCCN3C[C@H](F)C4)nc3c(F)c(-c4cccc5cccc(Cl)c45)ncc23)C1     6.30 to 7.00
10  C=CC(=O)N1CC[C@@H](N(C)c2nc(OCC34CCCN3CCC4)nc3c(F)c(-c4cccc5ccc(F)c(Cl)c45)ncc23)C1     7.00 to 8.00
11  CN(CCS(=O)(=O)/C=C/CC1CC1)c1nc(OCC23CCCN2CCC3)nc2c1CCN(c1cccc3cccc(Cl)c13)C2           < 6.30
12  CCN(C/C=C/S(=O)(=O)CCN(C)c1nc(OCC23CCCN2CCC3)nc2c1CCN(c1cccc3cccc(Cl)c13)C2)CCOC     7.00 to 8.00
13  CN(C)C/C=C/C(=O)N1CC[C@@H](N(C)c2nc(OC[C@@H]3CCCN3C)nc3c2CCN(c2cccc4cccc(Cl)c24)C3)C1     6.30 to 7.00
14  C=CC(=O)N(C)C[C@H]1CCN1c1nc(OC[C@@]23CCCN2C[C@H](F)C3)nc2c(F)c(-c3cccc4cccc(Cl)c34)ncc12           < 6.30
15  C=CC(=O)CCCN(C)c1nc(OC[C@@H]2CCCN2C)nc2c1CCN(c1cccc3cccc(Cl)c13)C2           > 8.00
16  CN(C)C/C=C/C(=O)N1CC[C@@H](N(C)c2nc(OC[C@@H]3CCCN3C)nc3c(F)c(-c4cccc5ccc(F)c(Cl)c45)ncc23)C1     7.00 to 8.00
17  C=CC(=O)N1CC[C@@H](N(C)c2nc(OC[C@@]34CCCN3C[C@H](F)C4)nc3c2CCN(c2cc(O)cc4ccccc24)C3)C1     6.30 to 7.00
18  Cc1cc(/C=C/C(=O)N2CC[C@@H](N(C)c3nc(OCC45CCCN4CCC5)nc4c(F)c(-c5cccc6cccc(Cl)c56)ncc34)C2)on1           < 6.30
19  Cc1nccc(/C=C/C(=O)N2C[C@H]3CC[C@@H](C2)N3c2nc(OC[C@@]34CCCN3C[C@H](F)C4)nc3c(F)c(-c4cccc5cccc(Cl)c45)ncc23)n1           < 6.30
20  N#CN1CCC(N(c2nc(OC[C@@]34CCCN3C[C@H](F)C4)nc3c(F)c(-c4cccc5cccc(Cl)c45)ncc23)C2CC2)C1 (stereo partly shown)     7.00 to 8.00
21  C=CC(=O)N1C2CCC1CN(c1nc(OCC34CCCN3CCC4)nc3c1CCN(c1cccc4cccc(Cl)c14)C3)C2           < 6.30
22  O=C(/C=C/CN1CCOCC1)N1CC2(C1)CN(c1nc(OC[C@@]34CCCN3C[C@H](F)C4)nc3c(F)c(-c4cccc5cccc(Cl)c45)ncc13)C2           < 6.30
23  C=CC(=O)N1C[C@H](C)C[C@@H](Nc2nc(OC[C@@]34CCCN3C[C@H](F)C4)nc3c(F)c(-c4cccc5cccc(Cl)c45)ncc23)C1           < 6.30
24  CN(C)C/C=C/S(=O)(=O)CCN(C)c1nc(OCC23CCCN2CCC3)nc2c1CCN(c1cccc3cccc(Cl)c13)C2           > 8.00
25  O=C(/C=C/CN1CCOCC1)N1[C@@H]2CC[C@H]1CN(c1nc(OC[C@@]34CCCN3C[C@H](F)C4)nc3c(F)c(-c4cccc5cccc(Cl)c45)ncc13)C2           < 6.30
26  C=CC(=O)N1C[C@@H](N(C)c2nc(OC[C@@H]3CCCN3C)nc3c(F)c(-c4cccc5cccc(Cl)c45)ncc23)C[C@@H]1CC#N           < 6.30
27  C=CC(=O)CCN(C)c1nc(OC[C@@H]2CCCN2C)nc2c1CCN(c1cccc3ccccc13)C2           < 6.30

----------
target: KRAS G12C and cRAF (Ras-binding domain) interaction (Homo sapiens (Human), UniProt P01116, C118S/C51S/C80L/G12C); experiment: Inhibition of KRAS G12C and cRAF binding (AlphaScreen); details: GMPPNP-loaded KRAS G12C, 19-20 hours incubation with compound; read-out: IC50 (Inhibition of KRAS G12C and cRAF Binding)
pIC50: −log10 of the molar value.
measurement_name: pIC50

compound	observed_result
C=CC(=O)N1C[C@H](N(C)c2nc(OC[C@@]34CCCN3C[C@H](F)C4)nc3c(F)c(-c4cccc5cccc(Cl)c45)ncc23)C(F)(F)C1	7.00 to 8.00
C#Cc1c(F)ccc2cccc(-c3ncc4c(N(C)[C@@H]5CCN(C(=O)/C=C/CN6[C@@H]7CC[C@H]6COC7)C5)nc(OC[C@@]56CCCN5C[C@H](F)C6)nc4c3F)c12	> 8.00
COC(=O)/C=C/C(=O)NCCN(C)c1nc(OC[C@@H]2CCCN2C)nc2c1CCN(c1cccc3cccc(Cl)c13)C2	6.30 to 7.00
C=CS(=O)(=O)CCN(C)c1nc(OCC23CCCN2CCC3)nc2c1CCN(c1cccc3cccc(Cl)c13)C2	> 8.00
CN(c1nc(OC[C@@]23CCCN2C[C@H](F)C3)nc2c(F)c(-c3cccc4cccc(Cl)c34)ncc12)[C@@H]1CCN(C(=O)/C=C/c2nc(C3(F)CCC3)no2)C1	> 8.00
CN1CC(C#CC(=O)N2CC[C@@H](N(C)c3nc(OC[C@@]45CCCN4C[C@H](F)C5)nc4c(F)c(-c5cccc6cccc(Cl)c56)ncc34)C2)C1	7.00 to 8.00
COC(=O)/C=C/C(=O)N1CC(CN(C)c2nc(OC[C@@H]3CCCN3C)nc3c2CCN(c2cccc4cccc(Cl)c24)C3)C1	7.00 to 8.00
C=CC(=O)N1CC[C@@H](N(C)c2nc(OCC34CCCN3CCC4)nc3c(F)c(-c4cccc5c(F)cc(F)cc45)ncc23)C1	6.30 to 7.00
C=CS(=O)(=O)C1CN(c2nc(OC[C@@H]3CCCN3C)nc3c2CCN(c2cccc4cccc(Cl)c24)C3)C1	< 6.30
CN(CC1CN(C(=O)/C=C/c2nc(C3COC3)no2)C1)c1nc(OC[C@@]23CCCN2C[C@H](F)C3)nc2c(F)c(-c3cccc4cccc(Cl)c34)ncc12	> 8.00
C=CC(=O)N1C[C@H](N(C)c2nc(OC[C@@]34CCCN3C[C@H](F)C4)nc3c(F)c(-c4cccc5cccc(Cl)c45)ncc23)C[C@@H]1CC#N	6.30 to 7.00
C[C@H](F)c1noc(/C=C/C(=O)N2CC(CN(C)c3nc(OC[C@@]45CCCN4C[C@H](F)C5)nc4c(F)c(-c5cccc6cccc(Cl)c56)ncc34)C2)n1	> 8.00
CN1CC[C@@H]1/C=C/C(=O)N1C[C@H](F)[C@@H](N(C)c2nc(OC[C@@]34CCCN3C[C@H](F)C4)nc3c(F)c(-c4cccc5ccc(F)c(F)c45)ncc23)C1	> 8.00
C#Cc1c(F)ccc2cccc(-c3ncc4c(N(C)[C@@H]5CCN(C(=O)/C=C/c6nc(C)ncc6F)C5)nc(OC[C@@]56CCCN5C[C@H](F)C6)nc4c3F)c12	7.00 to 8.00
CC(C)c1noc(/C=C/C(=O)N2CC(CN(C)c3nc(OC[C@@]45CCCN4C[C@H](F)C5)nc4c(F)c(-c5cccc6cccc(Cl)c56)ncc34)C2)n1	7.00 to 8.00
C#Cc1c(F)ccc2cccc(-c3ncc4c(N(C)[C@@H]5CCN(C(=O)C=C)C5)nc(OC[C@@]56CCCN5C[C@H](F)C6)nc4c3F)c12	> 8.00
CN(CC1CN(C(=O)/C=C/c2nc(C(C)(C)O)no2)C1)c1nc(OCC23CCCN2CCC3)nc2c(F)c(-c3cccc4ccc(F)c(Cl)c34)ncc12	> 8.00
COC(=O)/C=C/C(=O)N1CC[C@@H](N(C)c2nc(OC[C@@H]3CCCN3C)nc3c2CCN(c2cccc4ccc(F)c(Cl)c24)C3)C1	7.00 to 8.00
CN(c1nc(OC[C@@]23CCCN2C[C@H](F)C3)nc2c(F)c(-c3cccc4cccc(Cl)c34)ncc12)[C@@H]1CCN(C(=O)C#CCN2CCOCC2)C1	< 6.30
CN1CCCC1/C=C/C(=O)N1CC[C@@H](N(C)c2nc(OC[C@@]34CCCN3C[C@H](F)C4)nc3c(F)c(-c4cccc5ccc(F)c(Cl)c45)ncc23)C1 (some centres unmarked)	7.00 to 8.00
COCCN1CC[C@@H]1/C=C/C(=O)N1CC[C@@H](N(C)c2nc(OC[C@@]34CCCN3C[C@H](F)C4)nc3c(F)c(-c4cccc5cccc(Cl)c45)ncc23)C1	7.00 to 8.00
CN(c1nc(OC[C@@H]2CCCN2C)nc2c(F)c(-c3cccc4cccc(Cl)c34)ncc12)C1CCN(C#N)C1 (some centres unmarked)	7.00 to 8.00
C=CC(=O)N1CC[C@@H](N(CC2CC2)c2nc(OC[C@@]34CCCN3C[C@H](F)C4)nc3c(F)c(-c4cccc5cccc(Cl)c45)ncc23)C1	6.30 to 7.00
